tested on: Klebsiella pneumoniae KPC-119; experiment: percent growth inhibition of drug + antibiotic vs DMSO control; higher = more growth inhibition; details: antibiotic (0.125x MIC): colistin; 20 µM
REPORTED_ENDPOINT: percent growth inhibition (%)
Field format: number, assumed %, no unit text.

INSERT INTO measurements (compound, reported_endpoint, result_value) VALUES
  ('C=C1c2c(Cl)ccc(O)c2C(=O)C2=C(O)[C@]3(O)C(=O)C(C(N)=O)=C(O)[C@@H](N(C)C)[C@@H]3[C@@H](O)[C@H]12.O=C(O)c1cc(S(=O)(=O)O)ccc1O [Meclocycline sulfosalicylate]', 'percent growth inhibition', 10.3);

Inquiry: I'd like to know its percent growth inhibition. The compound in question is NCC[C@H](O)C(=O)N[C@@H]1C[C@H](N)[C@@H](O[C@H]2O[C@H](CN)[C@@H](O)[C@H](O)[C@H]2O)[C@H](O)[C@H]1O[C@H]1O[C@H](CO)[C@@H](O)[C@H](N)[C@H]1O [Amikacin hydrate]
Reply text: 92.3

Inquiry: I'd like to know its percent growth inhibition. The compound in question is CN1CCN(c2c(F)cc3c(=O)c(C(=O)O)cn4c3c2SCC4)CC1 [Rufloxacin]
Reply text: 93.9

Inquiry: I'd like to know its percent growth inhibition. The compound in question is CC(Cc1cccc(C(F)(F)F)c1)NCCOC(=O)c1ccccc1 (stereo not given) [Benfluorex]
Reply text: 4.58

Inquiry: I'd like to know its percent growth inhibition. The compound in question is CO[C@H]1/C=C/O[C@@]2(C)Oc3c(C)c(O)c4c(O)c(c(/C=N/N5CCN(C6CCCC6)CC5)c(O)c4c3C2=O)NC(=O)/C(C)=C\C=C\[C@H](C)[C@H](O)[C@@H](C)[C@@H](O)[C@@H](C)[C@H](OC(C)=O)[C@@H]1C [Rifapentine]
Reply text: 93

All figures here come from the supplement of paper PMC6658780.
